target: Adenosine receptor A2a (Homo sapiens); experiment: Displacement of [3H]ZM241385 from human adenosine A2A receptor expressed in human HeLa cell membranes at 1 uM after 30 mins relative to control
Sequence (P29274 whole entry): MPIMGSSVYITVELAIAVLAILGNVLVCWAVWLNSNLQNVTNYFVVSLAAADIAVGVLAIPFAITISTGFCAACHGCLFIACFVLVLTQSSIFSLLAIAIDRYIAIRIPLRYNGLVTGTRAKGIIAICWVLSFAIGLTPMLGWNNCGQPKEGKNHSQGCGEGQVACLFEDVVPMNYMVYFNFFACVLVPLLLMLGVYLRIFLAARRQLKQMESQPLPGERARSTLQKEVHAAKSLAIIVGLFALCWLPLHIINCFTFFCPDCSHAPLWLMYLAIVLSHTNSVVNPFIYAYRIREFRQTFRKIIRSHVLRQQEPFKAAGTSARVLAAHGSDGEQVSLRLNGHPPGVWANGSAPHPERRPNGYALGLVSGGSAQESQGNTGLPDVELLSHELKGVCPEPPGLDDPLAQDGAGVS
Returns MET if the recorded inhibition is greater than or equal to 3%, and NOT MET otherwise.

For orientation, consider the following solved cases.
Please check the record CC(=O)Nc1cc(-c2ccccc2)cc(-c2ccccc2)n1 and state if its inhibition is at or above 3%.
MET

Please check the record COc1cccc(OC)c1-c1cc(NC(C)=O)nc(-c2c(OC)cccc2OC)c1 and state if its inhibition is at or above 3%.
NOT MET

Please check the record COc1cc(-c2cc(NC(C)=O)nc(-c3cc(OC)c(OC)c(OC)c3)c2)cc(OC)c1OC and state if its inhibition is at or above 3%.
MET

Please check the record COc1cc(OC)cc(-c2cc(NC(C)=O)nc(-c3cc(OC)cc(OC)c3)c2)c1 and state if its inhibition is at or above 3%.
NOT MET

Please check the record CC(=O)Nc1cc(-c2ccc3c(c2)OCO3)cc(-c2ccc3c(c2)OCO3)n1 and state if its inhibition is at or above 3%.
MET

Please check the record COc1ccc(-c2cc(NC(C)=O)nc(-c3ccc(OC)cc3OC)c2)c(OC)c1 and state if its inhibition is at or above 3%.
NOT MET

Please check the record COc1ccc(-c2cc(NC(C)=O)nc(-c3ccc(OC)c(OC)c3)c2)cc1OC and state if its inhibition is at or above 3%.
NOT MET

Please check the record CSc1ccc(-c2cc(NC(C)=O)nc(-c3ccc(SC)cc3)c2)cc1 and state if its inhibition is at or above 3%.
NOT MET

Okay, next one:
Please check the record COc1cccc(-c2cc(NC(C)=O)nc(-c3cccc(OC)c3)c2)c1 and state if its inhibition is at or above 3%.
MET
